Entry source: the RNAGym collection of RNA variant scans (doi:10.1093/molbev/msab373)

B1: Azoarcus group I ribozyme (parent)
chain: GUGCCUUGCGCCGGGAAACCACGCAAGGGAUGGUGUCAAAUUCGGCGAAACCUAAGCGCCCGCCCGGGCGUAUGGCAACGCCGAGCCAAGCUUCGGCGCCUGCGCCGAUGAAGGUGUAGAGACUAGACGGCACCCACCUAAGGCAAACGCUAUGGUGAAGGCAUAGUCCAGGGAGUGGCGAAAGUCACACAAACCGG

variants of: B1; assay: reverse-splicing fitness (ratio to wild type); higher = more active; in vitro selection; Mg2+ level not given
experimental-readout: reverse-splicing fitness
Answer field: number only, no words.

Request: Look up reverse-splicing fitness: C82G A111U A145C C150G C169U U176G
Result: 0.00634

Request: Look up reverse-splicing fitness: A120G A145U C150A C169G U176C
Result: 0.061

Request: Look up reverse-splicing fitness: C82U A111G A120G A145U C150A C169A U176C
Result: 0.00962

Request: Look up reverse-splicing fitness: C82A A111G A120U C150G U176C
Result: 0.00582

Request: Look up reverse-splicing fitness: C82U A111G A120U A145G C150A C169U U176C
Result: 0.00341

Request: Look up reverse-splicing fitness: C82U A120C A145G C150U C169G U176A
Result: 0.0128

Request: Look up reverse-splicing fitness: C82A A111U A120G C150U C169U
Result: 0.00932

Request: Look up reverse-splicing fitness: A111C A120C A145C C169A
Result: 0.00953

Request: Look up reverse-splicing fitness: A111U A120G A145C C150G U176G
Result: 0.00302

Request: Look up reverse-splicing fitness: A120U A145U C150A C169G
Result: 0.0282

Request: Look up reverse-splicing fitness: C82G A111C A120G A145G C150A U176A
Result: 0.00974

Request: Look up reverse-splicing fitness: C82G A111U A145C U176A
Result: 0.19

Request: Look up reverse-splicing fitness: A111C A120G C150U C169A U176G
Result: 0.00513

Request: Look up reverse-splicing fitness: C82G A111G C150A C169G
Result: 0.0109

Request: Look up reverse-splicing fitness: C82U A111U A120C A145C C150A U176A
Result: 0.00819

Request: Look up reverse-splicing fitness: C82U A111G A120U A145C C150A C169A U176C
Result: 0.00185

Request: Look up reverse-splicing fitness: C82A A111G A120C A145C C150U C169U U176C
Result: 0.0102

Request: Look up reverse-splicing fitness: C82G A120G A145C C150U U176A
Result: 0.00928

Request: Look up reverse-splicing fitness: A111C A120C A145C C150U U176C
Result: 0.0914

Request: Look up reverse-splicing fitness: C82G A145U C150U C169A U176A
Result: 0.0114

Request: Look up reverse-splicing fitness: C82G A111U A120G A145C C150U C169U U176A
Result: 0.019

Request: Look up reverse-splicing fitness: A111U A145G C169U U176C
Result: 0.0327
